- Study Conditions: Escherichia coli (strain K12); pH 7.5; Thermal; Intensity; HEPES 20mM; transition: 2; whole UniProt chain shown
Measured Metric: Tm

Identify Tm associated with the protein Fructose-1,6-bisphosphatase class 1 wild type, P0A993 (protein) MKTLGEFIVEKQHEFSHATGELTALLSAIKLGAKIIHRDINKAGLVDILGASGAENVQGEVQQKLDLFANEKLKAALKARDIVAGIASEEEDEIVVFEGCEHAKYVVLMDPLDGSSNIDVNVSVGTIFSIYRRVTPVGTPVTEEDFLQPGNKQVAAGYVVYGSSTMLVYTTGCGVHAFTYDPSLGVFCLCQERMRFPEKGKTYSINEGNYIKFPNGVKKYIKFCQEEDKSTNRPYTSRYIGSLVADFHRNLLKGGIYLYPSTASHPDGKLRLLYECNPMAFLAEQAGGKASDGKERILDIIPETLHQRRSFFVGNDHMVEDVERFIREFPDA
42.4 °C

Report measured Tm; entry is Imidazole glycerol phosphate synthase subunit HisH wild type, P60595 (protein) MNVVILDTGCANLNSVKSAIARHGYEPKVSRDPDVVLLADKLFLPGVGTAQAAMDQVRERELFDLIKACTQPVLGICLGMQLLGRRSEESNGVDLLGIIDEDVPKMTDFGLPLPHMGWNRVYPQAGNRLFQGIEDGAYFYFVHSYAMPVNPWTIAQCNYGEPFTAAVQKDNFYGVQFHPERSGAAGAKLLKNFLEM
42.4 °C

Specify Tm for Selenide, water dikinase wild type, P16456 (protein) MSENSIRLTQYSHGAGCGCKISPKVLETILHSEQAKFVDPNLLVGNETRDDAAVYDLGNGTSVISTTDFFMPIVDNPFDFGRIAATNAISDIFAMGGKPIMAIAILGWPINKLSPEIAREVTEGGRYACRQAGIALAGGHSIDAPEPIFGLAVTGIVPTERVKKNSTAQAGCKLFLTKPLGIGVLTTAEKKSLLKPEHQGLATEVMCRMNIAGASFANIEGVKAMTDVTGFGLLGHLSEMCQGAGVQARVDYEAIPKLPGVEEYIKLGAVPGGTERNFASYGHLMGEMPREVRDLLCDPQTSGGLLLAVMPEAENEVKATAAEFGIELTAIGELVPARGGRAMVEIR and stop.
41.7 °C

Fill in reported Tm for this entry: Nucleoid-associated protein YejK wild type, P33920 (protein) MSLDINQIALHQLIKRDEQNLELVLRDSLLEPTETVVEMVAELHRVYSAKNKAYGLFSEESELAQTLRLQRQGEEDFLAFSRAATGRLRDELAKYPFADGGFVLFCHYRYLAVEYLLVAVLSNLSSMRVNENLDINPTHYLDINHADIVARIDLTEWETNPESTRYLTFLKGRVGRKVADFFMDFLGASEGLNAKAQNRGLLQAVDDFTAEAQLDKAERQNVRQQVYSYCNEQLQAGEEIELKSLSKELAGVSEVSFTEFAAEKGYELEESFPADRSTLRQLTKFAGSGGGLTINFDAMLLGERIFWDPATDTLTIKGTPPNLRDQLQRRTSGGN
42.6 °C

Tell us which Tm value is on record for Pyruvate formate-lyase 1-activating enzyme wild type, P0A9N4 (protein) MSVIGRIHSFESCGTVDGPGIRFITFFQGCLMRCLYCHNRDTWDTHGGKEVTVEDLMKEVVTYRHFMNASGGGVTASGGEAILQAEFVRDWFRACKKEGIHTCLDTNGFVRRYDPVIDELLEVTDLVMLDLKQMNDEIHQNLVGVSNHRTLEFAKYLANKNVKVWIRYVVVPGWSDDDDSAHRLGEFTRDMGNVEKIELLPYHELGKHKWVAMGEEYKLDGVKPPKKETMERVKGILEQYGHKVMF
43.4 °C

Provide only the value of recorded Tm for FKBP-type peptidyl-prolyl cis-trans isomerase FkpA wild type, P45523 (protein) MKSLFKVTLLATTMAVALHAPITFAAEAAKPATAADSKAAFKNDDQKSAYALGASLGRYMENSLKEQEKLGIKLDKDQLIAGVQDAFADKSKLSDQEIEQTLQAFEARVKSSAQAKMEKDAADNEAKGKEYREKFAKEKGVKTSSTGLVYQVVEAGKGEAPKDSDTVVVNYKGTLIDGKEFDNSYTRGEPLSFRLDGVIPGWTEGLKNIKKGGKIKLVIPPELAYGKAGVPGIPPNSTLVFDVELLDVKPAPKADAKPEADAKAADSAKK
41.8 °C

Return value of Tm for input Putative NAD(P)H nitroreductase YdjA wild type, P0ACY1 (protein) MDALELLINRRSASRLAEPAPTGEQLQNILRAGMRAPDHKSMQPWHFFVIEGEGRERFSAVLEQGAIAAGSDDKAIDKARNAPFRAPLIITVVAKCEENHKVPRWEQEMSAGCAVMAMQMAAVAQGFGGIWRSGALTESPVVREAFGCREQDKIVGFLYLGTPQLKASTSINVPDPTPFVTYF , no commentary.
45.3 °C

For the protein Uncharacterized Nudix hydrolase YfcD wild type, P65556 (protein) MEQRRLASTEWVDIVNEENEVIAQASREQMRAQCLRHRATYIVVHDGMGKILVQRRTETKDFLPGMLDATAGGVVQADEQLLESARREAEEELGIAGVPFAEHGQFYFEDKNCRVWGALFSCVSHGPFALQEDEVSEVCWLTPEEITARCDEFTPDSLKALALWMKRNAKNEAVETETAE , give its reported Tm.
42.1 °C

Using known records, supply Tm for Uncharacterized protein YjaG wild type, P32680 (protein) MLQNPIHLRLERLESWQHVTFMACLCERMYPNYAMFCQQTGFGDGQIYRRILDLIWETLTVKDAKVNFDSQLEKFEEAIPSADDFDLYGVYPAIDACVALSELVHSRLSGETLEHAVEVSKTSITTVAMLEMTQAGREMSDEELKENPAVEQEWDIQWEIFRLLAECEERDIELIKGLRADLREAGESNIGIIFQQ
46.1 °C
